- System: 253994-281-T-J1-PDC KRAS-mutant spheroids with HUVEC/MSC, viability;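 further: spheroids exposed to agents for seven days before readout; percent of DMSO vehicle control viability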
- experiment.notes: Anticancer human tumor 253994-281-T-J1-PDC patient-derived colorectal carcinoma cell line growth inhibition [KRAS2]
- test.parameters: compound 0.1 µM; hits give low values
measured.attribute: viability, T/C

| compound | experimental.target | viability, T/C |
| --- | --- | --- |
| COC(=O)c1ccc2c(C(=Nc3ccc(N(C)C(=O)CN4CCN(C)CC4)cc3)c3ccccc3)c(O)[nH]c2c1 | 253994-281-T-J1-PDC KRAS-mutant spheroids with HUVEC/MSC, viability | 90.5% [middle of 5 runs] |
| CC(C)NCC(C(=O)N1CCN(c2ncnc3c2C(C)CC3O)CC1)c1ccc(Cl)cc1 (stereo not given) | 253994-281-T-J1-PDC KRAS-mutant spheroids with HUVEC/MSC, viability | 107% [middle of 5 runs] |
| CC1COCCN1c1cc(-c2ccnn2C)c2ccnc(-c3ccn[nH]3)c2n1 (stereo not given) | 253994-281-T-J1-PDC KRAS-mutant spheroids with HUVEC/MSC, viability | 74.6% [middle of 5 runs] |
| COc1cc(Nc2ncc3c(n2)-c2ccc(Cl)cc2C(c2c(F)cccc2OC)=NC3)ccc1C(=O)O | 253994-281-T-J1-PDC KRAS-mutant spheroids with HUVEC/MSC, viability | 38.8% [middle of 5 runs] |

Next compound, viability, T/C to be filled in.
For C=CC(=O)N1CCN(c2nc(OCC3CCCN3C)nc3c2CCN(c2cccc4cccc(C)c24)C3)CC1CC#N (stereo not given) , what is its reported viability, T/C?
93.6% [middle of 17 runs]
